Provide the recorded inhibition for the entries that follow.
- TESTED ON: UniProtKB O60911
- PROTOCOL NOTES: Inhibition of Cathepsin V at 1 umol/L for 2 mins by spectrofluorometry
The answer should read as a number with its unit following.

Task: Annotate the compound "CCCC[Te](Br)(Br)c1ccccc1[C@H](C)OC" with its measured inhibition.
Result: 90%

Task: Annotate the compound "CCCC[Te](Br)(Br)c1ccccc1[C@@H](C)OC" with its measured inhibition.
Result: 90%

Task: Annotate the compound "CCCC[Te](Cl)(Cl)c1ccccc1[C@@H](C)OC" with its measured inhibition.
Result: 90%

Task: Annotate the compound "CCCC[Te](Cl)(Cl)c1ccccc1COC" with its measured inhibition.
Result: 90%

Task: Annotate the compound "CCCC[Te](Br)(Br)c1ccccc1COC" with its measured inhibition.
Result: 90%

Task: Annotate the compound "CCCC[Te](Cl)(Cl)c1ccccc1[C@H](C)OC" with its measured inhibition.
Result: 90%

###

- TESTED ON: Cathepsin L2 (Homo sapiens) (UniProt O60911)
- Sequence (O60911 whole entry): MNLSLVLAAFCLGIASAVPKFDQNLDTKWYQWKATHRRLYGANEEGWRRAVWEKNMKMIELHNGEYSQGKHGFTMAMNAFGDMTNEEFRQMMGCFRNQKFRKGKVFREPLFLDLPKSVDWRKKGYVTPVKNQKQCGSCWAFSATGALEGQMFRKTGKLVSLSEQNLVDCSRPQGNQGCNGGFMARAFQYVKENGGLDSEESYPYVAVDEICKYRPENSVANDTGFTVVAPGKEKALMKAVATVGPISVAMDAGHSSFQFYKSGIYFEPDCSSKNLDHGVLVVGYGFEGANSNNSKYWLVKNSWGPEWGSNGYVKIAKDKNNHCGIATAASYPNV
- PROTOCOL NOTES: Inhibition of Cathepsin V assessed as second-order inactivation rate constant by spectrofluorometry
MEASURED PROPERTY: log10 of Activity (log10 of the value in mol/L/s)
Short version: log10 scale, Activity, mol/L/s.

Task: Annotate the compound "CCCC[Se](Br)(Br)c1ccccc1[C@H](C)OC" with its measured log10 of Activity.
Result: 3.34

Task: Annotate the compound "CCCC[Se](Br)(Br)c1ccccc1[C@@H](C)OC" with its measured log10 of Activity.
Result: 3.00

Task: Annotate the compound "CCCC[Se](Cl)(Cl)c1ccccc1[C@@H](C)OC" with its measured log10 of Activity.
Result: 2.95

Task: Annotate the compound "CCCC[Te](Cl)(Cl)c1ccccc1COC" with its measured log10 of Activity.
Result: 4.06

Task: Annotate the compound "CCCC[Se](Br)(Br)c1ccccc1COC" with its measured log10 of Activity.
Result: 3.53

Task: Annotate the compound "CCCC[Te](Br)(Br)c1ccccc1COC" with its measured log10 of Activity.
Result: 4.42

Task: Annotate the compound "CCCC[Se](Cl)(Cl)c1ccccc1[C@H](C)OC" with its measured log10 of Activity.
Result: 3.00

Task: Annotate the compound "CCCC[Te](Br)(Br)c1ccccc1[C@H](C)OC" with its measured log10 of Activity.
Result: 3.87

Task: Annotate the compound "CCCC[Te](Cl)(Cl)c1ccccc1[C@@H](C)OC" with its measured log10 of Activity.
Result: 3.40

Task: Annotate the compound "CCCC[Te](Cl)(Cl)c1ccccc1[C@H](C)OC" with its measured log10 of Activity.
Result: 3.38

Task: Annotate the compound "CCCC[Te](Br)(Br)c1ccccc1[C@@H](C)OC" with its measured log10 of Activity.
Result: 3.59

Task: Annotate the compound "CCCC[Se](Cl)(Cl)c1ccccc1COC" with its measured log10 of Activity.
Result: 2.70

###

- TESTED ON: UniProtKB P25774
- Sequence (P25774 115-331 limits assumed): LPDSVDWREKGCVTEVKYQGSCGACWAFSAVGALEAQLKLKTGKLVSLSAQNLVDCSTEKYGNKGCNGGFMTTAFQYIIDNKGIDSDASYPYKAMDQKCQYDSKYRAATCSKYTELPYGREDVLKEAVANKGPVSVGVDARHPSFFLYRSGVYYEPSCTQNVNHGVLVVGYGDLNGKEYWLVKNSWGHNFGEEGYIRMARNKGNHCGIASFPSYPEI
- PROTOCOL NOTES: Inhibition of Cathepsin S assessed as second-order inactivation rate constant by spectrofluorometry
- Set-up: unit not given here
Provide the recorded Activity for the entries that follow.
Form rule: numeric answer, no unit written next to it.

Task: // output Activity; input "CCCC[Te](Cl)(Cl)c1ccccc1COC" ; system UniProtKB P25774
Result: 1300

Task: // output Activity; input "CCCC[Te](Cl)(Cl)c1ccccc1[C@H](C)OC" ; system UniProtKB P25774
Result: 1800

Task: // output Activity; input "CCCC[Se](Cl)(Cl)c1ccccc1[C@H](C)OC" ; system UniProtKB P25774
Result: 1500

Task: // output Activity; input "CCCC[Se](Br)(Br)c1ccccc1[C@H](C)OC" ; system UniProtKB P25774
Result: 2900

Task: // output Activity; input "CCCC[Te](Br)(Br)c1ccccc1[C@@H](C)OC" ; system UniProtKB P25774
Result: 2500

Task: // output Activity; input "CCCC[Se](Cl)(Cl)c1ccccc1[C@@H](C)OC" ; system UniProtKB P25774
Result: 1200

Task: // output Activity; input "CCCC[Te](Cl)(Cl)c1ccccc1[C@@H](C)OC" ; system UniProtKB P25774
Result: 1800

Task: // output Activity; input "CCCC[Se](Br)(Br)c1ccccc1COC" ; system UniProtKB P25774
Result: 4000

Task: // output Activity; input "CCCC[Se](Br)(Br)c1ccccc1[C@@H](C)OC" ; system UniProtKB P25774
Result: 2200

Task: // output Activity; input "CCCC[Te](Br)(Br)c1ccccc1[C@H](C)OC" ; system UniProtKB P25774
Result: 4900

Task: // output Activity; input "CCCC[Te](Br)(Br)c1ccccc1COC" ; system UniProtKB P25774
Result: 4400

Task: // output Activity; input "CCCC[Se](Cl)(Cl)c1ccccc1COC" ; system UniProtKB P25774
Result: 1500

Values from ChEMBL document CHEMBL1681765
